test system: BT-549; assay: drug sensitivity score (DSS), CellTiter-Glo (DSS (AUC-based score)); higher = stronger drug effect (viability inhibition or cytotoxicity); extreme values may be limits of the assay; conditions: incubation time: 72 h
Recorded drug sensitivity score, one value per entry.
Just the number, please.

Past entries and their recorded results:
1) Cn1cnc2c(F)c(Nc3ccc(Br)cc3F)c(C(=O)NOCCO)cc21
0
2) CC(C)(C)c1cc(NC(=O)Nc2ccc(-c3cn4c(n3)sc3cc(OCCN5CCOCC5)ccc34)cc2)no1
0
3) CC(=O)O[C@H]1C(=O)[C@@]2(C)[C@H]([C@H](OC(=O)c3ccccc3)[C@]3(O)C[C@H](OC(=O)[C@H](O)[C@@H](NC(=O)c4ccccc4)c4ccccc4)C(C)=C1C3(C)C)[C@]1(OC(C)=O)CO[C@@H]1C[C@@H]2O
24.3
4) CS(=O)(=O)OCCCCOS(C)(=O)=O
0
5) COC1=C2C[C@@H](C)C[C@H](OC)[C@H](O)[C@@H](C)/C=C(\C)[C@H](OC(N)=O)[C@@H](OC)/C=C\C=C(/C)C(=O)NC(=CC1=O)C2=O
5.68

*Q* Look at this compound and give its reported drug sensitivity score. COc1ccc(C2=N[C@@H](c3ccc(Cl)cc3)[C@@H](c3ccc(Cl)cc3)N2C(=O)N2CCNC(=O)C2)c(OC(C)C)c1
*A* 0

# credit: the supplement of paper PMC4862054
